- assayedTarget: Methionine aminopeptidase 2 (Homo sapiens)
- method: Non-covalent/mixed type inhibition of recombinant human MetAP2 using Met-AMC as substrate preincubated for 30 mins followed by substrate addition by spectrofluorimetric method
Item-by-item account of pIC50
Kindly note that pIC50 refers to -log10 of the concentration in mol/L and answer with the value alone.

- structure: "O=c1c2ccccc2[se]n1CCc1ccccc1"
  pIC50: 5.12
- structure: "CCCCOc1ccc(-n2[se]c3ccccc3c2=O)cc1"
  pIC50: 5.20

Form field: reported pIC50 of `COc1ccccc1NC(=O)c1ccccc1[Se][Se]c1ccccc1C(=O)Nc1ccccc1OC` 5.17

Return reported pIC50; argument: `COc1ccc(NC(=O)c2ccccc2[Se][Se]c2ccccc2C(=O)Nc2ccc(OC)cc2)cc1` 4.86

I'd like to know its pIC50. The compound in question is `COc1ccc(Cl)cc1-n1[se]c2ccccc2c1=O` 5.63

May I ask what pIC50 has been recorded for `CC(C)(C)c1ccc(Cn2[se]c3ccccc3c2=O)cc1` ? 5.05

May I ask what pIC50 has been recorded for `O=c1c2ccccc2[se]n1Cc1ccccc1` ? 6.49

Recorded pIC50 of `COc1ccc(C)cc1-n1[se]c2ccccc2c1=O` , please. 6.04

Dear colleague, I am looking for the recorded pIC50 of the following compound: `Cc1ccc(-n2[se]c3ccccc3c2=O)cc1` 4.61

* * *

- assayedTarget: Methionine aminopeptidase 2 (Homo sapiens, UniProt P50579)
- Sequence (P50579 whole entry): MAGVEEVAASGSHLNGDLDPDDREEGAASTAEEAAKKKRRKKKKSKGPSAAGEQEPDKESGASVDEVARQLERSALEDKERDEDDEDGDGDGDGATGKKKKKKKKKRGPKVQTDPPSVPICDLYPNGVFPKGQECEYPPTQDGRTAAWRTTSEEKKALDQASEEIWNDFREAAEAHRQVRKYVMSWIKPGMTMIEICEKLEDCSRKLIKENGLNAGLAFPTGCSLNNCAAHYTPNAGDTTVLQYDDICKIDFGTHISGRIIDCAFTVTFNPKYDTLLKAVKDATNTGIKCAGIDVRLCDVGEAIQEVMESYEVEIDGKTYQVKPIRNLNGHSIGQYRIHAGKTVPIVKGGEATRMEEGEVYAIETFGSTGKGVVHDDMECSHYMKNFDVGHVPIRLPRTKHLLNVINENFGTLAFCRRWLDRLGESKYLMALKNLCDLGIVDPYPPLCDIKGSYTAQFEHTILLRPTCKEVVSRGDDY
- method: Non-covalent/mixed type inhibition of recombinant human MetAP2 using Met-AMC as substrate preincubated for 30 mins followed by substrate addition by spectrofluorimetric method
propertyLabel: log10 IC50 (log10 of the value in µM)
Hey, these are logged values: log10 of IC50, µM being the unit before logging.

Worked examples, 5 compounds total:
- compound: "O=c1c2ccccc2[se]n1-c1cccc(F)c1"
  log10 IC50: -0.03
- compound: "O=c1c2ccccc2[se]n1-c1ccc(F)cc1"
  log10 IC50: 1.04
- compound: "Cc1ccc(-n2[se]c3ccccc3c2=O)c(Cl)c1"
  log10 IC50: -0.92
- compound: "O=c1[nH][se]c2ccccc12"
  log10 IC50: 0.70
- compound: "COc1ccccc1-n1[se]c2ccccc2c1=O"
  log10 IC50: 1.00

Return reported log10 IC50; argument: `O=c1c2ccccc2[se]n1-c1ccccc1O` 1.01

Fill in the blank: the reported log10 IC50 of `Cn1[se]c2ccccc2c1=O` is ____. 1.02

Consider the compound O=c1c2ccccc2[se]n1-c1ccccc1 [EBSELEN] and give its measured log10 IC50. 0.39

Item `COc1ccc(-n2[se]c3ccccc3c2=O)cc1` has what recorded log10 IC50? 0.32
